Entries with their measured pKi, system UniProt:P08254:
Answers are plain numbers, as −log10 of the molar value.

Known results for molecules:
CC(C)C[C@H](NC(=O)[C@H](CCc1ccccc1)N[C@H](CCCCCNC(=O)c1ccccc1)C(=O)O)C(=O)Nc1ccccc1 = 7.70
CC(C)C[C@H](NC(=O)[C@H](CCc1ccccc1)N[C@H](CCCNC(=O)CCCc1ccccc1)C(=O)O)C(=O)Nc1ccccc1 = 6.92
CC(C)C[C@H](NC(=O)[C@H](CCc1ccccc1)N[C@H](CCCNC(=O)c1ccccc1)C(=O)O)C(=O)Nc1ccccc1 = 6.57
CC(C)C[C@H](NC(=O)[C@H](CCc1ccccc1)N[C@H](CCCNC(=O)CCc1ccccc1)C(=O)O)C(=O)Nc1ccccc1 = 8.02

For each of the items listed, what is its pKi?
1. CC(C)C[C@H](NC(=O)[C@H](CCc1ccccc1)N[C@H](CCN1C(=O)c2ccccc2C1=O)C(=O)O)C(=O)Nc1ccccc1
2. CCCCCC[C@@H](N[C@@H](CCc1ccccc1)C(=O)N[C@@H](CC(C)C)C(=O)Nc1ccccc1)C(=O)O
3. CC(C)C[C@H](NC(=O)[C@H](CCc1ccccc1)N[C@H](CCCCNC(=O)CCc1ccccc1)C(=O)O)C(=O)Nc1ccccc1
4. CC(C)C[C@H](NC(=O)[C@H](CCc1ccccc1)N[C@H](CCCCN1Cc2ccccc2C1=O)C(=O)O)C(=O)Nc1ccccc1
5. CC(C)C[C@H](NC(=O)[C@H](CCc1ccccc1)N[C@H](CCCCNC(=O)Cc1ccccc1)C(=O)O)C(=O)Nc1ccccc1
6. CC(C)C[C@H](NC(=O)[C@H](CCc1ccccc1)N[C@H](CCNC(=O)Cc1ccccc1)C(=O)O)C(=O)Nc1ccccc1

1: 7.48; 2: 6.28; 3: 6.72; 4: 7.92; 5: 7.55; 6: 6.89

For each of the items listed, what is its pKi?
1. CC(C)C[C@H](NC(=O)[C@H](CCc1ccccc1)N[C@H](CCNC(=O)CCCc1ccccc1)C(=O)O)C(=O)Nc1ccccc1
2. CC(C)C[C@H](NC(=O)[C@H](CCc1ccccc1)N[C@H](CCCCCNC(=O)Cc1ccccc1)C(=O)O)C(=O)Nc1ccccc1
3. CC(C)C[C@H](NC(=O)[C@H](CCc1ccccc1)N[C@H](CCCCc1ccccc1)C(=O)O)C(=O)Nc1ccccc1
4. CC(C)C[C@H](NC(=O)[C@H](CCc1ccccc1)N[C@H](CCCCN1C(=O)c2ccccc2C1=O)C(=O)O)C(=O)Nc1ccccc1
5. CC(C)C[C@H](NC(=O)[C@H](CCc1ccccc1)N[C@H](CCCNC(=O)Cc1ccccc1)C(=O)O)C(=O)Nc1ccccc1

[6.57, 7.33, 6.92, 8.10, 8.00]

* * *

# system-name: Interstitial collagenase (Homo sapiens)
# Sequence (P03956 whole entry): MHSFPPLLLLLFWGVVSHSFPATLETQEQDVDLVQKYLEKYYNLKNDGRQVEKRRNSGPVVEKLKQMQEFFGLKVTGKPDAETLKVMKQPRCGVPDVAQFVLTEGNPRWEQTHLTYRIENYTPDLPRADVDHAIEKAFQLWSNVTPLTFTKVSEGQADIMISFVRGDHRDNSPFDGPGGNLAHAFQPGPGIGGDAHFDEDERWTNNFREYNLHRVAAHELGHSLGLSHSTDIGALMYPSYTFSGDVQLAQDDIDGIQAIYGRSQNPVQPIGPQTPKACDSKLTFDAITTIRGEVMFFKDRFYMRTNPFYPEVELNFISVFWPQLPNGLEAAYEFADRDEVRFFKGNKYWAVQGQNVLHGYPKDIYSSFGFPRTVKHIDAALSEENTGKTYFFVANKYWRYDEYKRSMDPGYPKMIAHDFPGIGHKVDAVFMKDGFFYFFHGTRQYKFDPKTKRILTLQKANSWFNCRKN
# experimental-protocol: Inhibition of matrix metalloprotease -1
quantity-measured: pKi
Give bare numbers, as −log10 of the molar value.

Return reported pKi; argument: CNC(=O)[C@H](Cc1ccccc1)NC(=O)[C@H](CC(C)C)N[C@H](CCN1C(=O)c2cc3ccccc3cc2C1=O)C(=O)O 8.30

* * *

# system-name: 72 kDa type IV collagenase (Homo sapiens, UniProt P08253)
# experimental-protocol: Inhibition of matrix metalloprotease-2 at 1 uM.
# Sequence (P08253 110-660 limits assumed): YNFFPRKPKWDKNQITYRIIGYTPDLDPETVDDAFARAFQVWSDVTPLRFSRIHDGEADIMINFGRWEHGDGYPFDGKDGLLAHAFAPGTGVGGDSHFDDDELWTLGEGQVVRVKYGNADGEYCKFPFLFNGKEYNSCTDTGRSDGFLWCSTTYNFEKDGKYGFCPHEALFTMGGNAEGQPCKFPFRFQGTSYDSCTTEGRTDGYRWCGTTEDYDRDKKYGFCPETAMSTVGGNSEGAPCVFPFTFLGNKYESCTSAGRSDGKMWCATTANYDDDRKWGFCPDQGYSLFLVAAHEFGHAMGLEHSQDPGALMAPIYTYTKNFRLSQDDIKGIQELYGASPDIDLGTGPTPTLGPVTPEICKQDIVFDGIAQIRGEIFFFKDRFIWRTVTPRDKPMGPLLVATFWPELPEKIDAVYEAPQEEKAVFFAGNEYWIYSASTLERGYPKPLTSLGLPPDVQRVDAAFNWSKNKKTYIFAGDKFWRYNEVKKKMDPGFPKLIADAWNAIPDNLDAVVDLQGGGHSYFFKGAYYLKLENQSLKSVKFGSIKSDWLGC
quantity-measured: inhibition (%)
Give bare numbers, in %.

Known results for compounds:
CC(=O)N1CCCC1C(=O)NCCCC[C@@H](N[C@@H](CCc1ccccc1)C(=O)N[C@@H](CC(C)C)C(=O)Nc1ccccc1)C(=O)O (some centres not stated) = 91
CC(C)C[C@H](NC(=O)[C@H](CCc1ccccc1)N[C@H](CCCCNC(=O)CCc1ccccc1)C(=O)O)C(=O)Nc1ccccc1 = 49
CC(C)C[C@H](NC(=O)[C@H](CCc1ccccc1)N[C@H](CCCCc1ccccc1)C(=O)O)C(=O)Nc1ccccc1 = 64
CC(C)C[C@H](NC(=O)[C@H](CCc1ccccc1)N[C@H](CCCNC(=O)c1ccccc1)C(=O)O)C(=O)Nc1ccccc1 = 50

For each of the items listed, what is its inhibition?
1. CC(C)C[C@H](NC(=O)[C@H](CCc1ccccc1)N[C@H](CCNC(=O)CCc1ccccc1)C(=O)O)C(=O)Nc1ccccc1
2. CC(C)C[C@H](NC(=O)[C@H](CCc1ccccc1)N[C@H](CCCNC(=O)CCCc1ccccc1)C(=O)O)C(=O)Nc1ccccc1
3. CC(C)C[C@H](NC(=O)[C@H](CCc1ccccc1)N[C@H](CCCNC(=O)CCc1ccccc1)C(=O)O)C(=O)Nc1ccccc1

[41, 70, 87]

* * *

# system-name: 72 kDa type IV collagenase (Homo sapiens, UniProt P08253)
# experimental-protocol: Inhibition of matrix metalloprotease-2
# Sequence (P08253 whole entry): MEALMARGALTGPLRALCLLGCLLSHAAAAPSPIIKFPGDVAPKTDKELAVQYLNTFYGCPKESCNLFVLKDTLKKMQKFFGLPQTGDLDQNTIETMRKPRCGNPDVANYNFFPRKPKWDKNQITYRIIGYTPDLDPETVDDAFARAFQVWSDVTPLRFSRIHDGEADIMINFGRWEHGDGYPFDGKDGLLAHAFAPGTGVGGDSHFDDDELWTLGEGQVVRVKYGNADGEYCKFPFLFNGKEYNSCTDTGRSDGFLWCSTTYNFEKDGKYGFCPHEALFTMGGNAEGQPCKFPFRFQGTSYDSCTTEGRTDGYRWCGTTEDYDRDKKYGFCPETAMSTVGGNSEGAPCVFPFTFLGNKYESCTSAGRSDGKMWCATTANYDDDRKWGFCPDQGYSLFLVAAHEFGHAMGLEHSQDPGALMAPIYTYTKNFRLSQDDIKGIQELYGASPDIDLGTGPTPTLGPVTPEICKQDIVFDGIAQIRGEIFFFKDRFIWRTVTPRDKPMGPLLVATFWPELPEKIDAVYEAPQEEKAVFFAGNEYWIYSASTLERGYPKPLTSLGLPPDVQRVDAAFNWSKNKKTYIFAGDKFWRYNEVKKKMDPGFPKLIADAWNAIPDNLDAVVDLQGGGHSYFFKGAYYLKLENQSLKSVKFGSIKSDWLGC
quantity-measured: Ki (nM)
One number for each entry, in nM.

Quick check: Ki on 72 kDa type IV collagenase (Homo sapiens, UniProt P08253), item CNC(=O)[C@H](Cc1ccccc1)NC(=O)[C@H](CC(C)C)N[C@H](CCN1C(=O)c2cc3ccccc3cc2C1=O)C(=O)O ? 91

* * *

Entries with their measured pKi, system Stromelysin-1 (Homo sapiens, UniProt P08254):
Numbers only, as −log10 of the molar value.

CC(C)C[C@H](NC(=O)[C@H](CCc1ccccc1)N[C@H](CCCN1C(=O)c2ccccc2C1=O)C(=O)O)C(=O)Nc1ccccc1 = 6.85

For each of the items listed, what is its pKi?
1. CCCC[C@@H](N[C@@H](CCc1ccccc1)C(=O)N[C@@H](CC(C)C)C(=O)Nc1ccccc1)C(=O)O
2. CC(C)C[C@H](NC(=O)[C@H](CCc1ccccc1)N[C@H](CCNC(=O)CCc1ccccc1)C(=O)O)C(=O)Nc1ccccc1
3. CC(=O)N1CCCC1C(=O)NCCCC[C@@H](N[C@@H](CCc1ccccc1)C(=O)N[C@@H](CC(C)C)C(=O)Nc1ccccc1)C(=O)O (some centres not stated)
4. CC(C)C[C@H](NC(=O)[C@H](CCc1ccccc1)N[C@H](CCCCNC(=O)c1ccccc1)C(=O)O)C(=O)Nc1ccccc1
5. CC(C)C[C@H](NC(=O)[C@H](CCc1ccccc1)N[C@H](CCNC(=O)c1ccccc1)C(=O)O)C(=O)Nc1ccccc1
6. CC[C@@H](N[C@@H](CCc1ccccc1)C(=O)N[C@@H](CC(C)C)C(=O)Nc1ccccc1)C(=O)O

1. 6.49
2. 6.96
3. 6.74
4. 7.49
5. 6.92
6. 6.46

* * *

I'd be grateful if you could share measured log10(Ki) for these entries.
# system-name: Interstitial collagenase (Homo sapiens, UniProt P03956)
# experimental-protocol: Inhibition of matrix metalloprotease -1.
Hey, these are logged values: log10 of Ki, µM being the unit before logging.

Known results for molecules:
CC(C)C[C@H](NC(=O)[C@H](CCc1ccccc1)N[C@H](CCCNC(=O)Cc1ccccc1)C(=O)O)C(=O)Nc1ccccc1 = -0.06
CC(C)C[C@H](NC(=O)[C@H](CCc1ccccc1)N[C@H](CCNC(=O)Cc1ccccc1)C(=O)O)C(=O)Nc1ccccc1 = 0.25
CC(C)C[C@H](NC(=O)[C@H](CCc1ccccc1)N[C@H](CCCNC(=O)CCc1ccccc1)C(=O)O)C(=O)Nc1ccccc1 = 0.34

For each of the items listed, what is its log10(Ki)?
1. CC(C)C[C@H](NC(=O)[C@H](CCc1ccccc1)N[C@H](CCCCN1C(=O)c2ccccc2C1=O)C(=O)O)C(=O)Nc1ccccc1
2. CC(C)C[C@H](NC(=O)[C@H](CCc1ccccc1)N[C@H](CCCCNC(=O)CCc1ccccc1)C(=O)O)C(=O)Nc1ccccc1
3. CC(C)C[C@H](NC(=O)[C@H](CCc1ccccc1)N[C@H](CCCCc1ccccc1)C(=O)O)C(=O)Nc1ccccc1
4. CC(C)C[C@H](NC(=O)[C@H](CCc1ccccc1)N[C@H](CCCCNC(=O)c1ccccc1)C(=O)O)C(=O)Nc1ccccc1
5. CC(C)C[C@H](NC(=O)[C@H](CCc1ccccc1)N[C@H](CCCCCNC(=O)Cc1ccccc1)C(=O)O)C(=O)Nc1ccccc1
6. CCCC[C@@H](N[C@@H](CCc1ccccc1)C(=O)N[C@@H](CC(C)C)C(=O)Nc1ccccc1)C(=O)O
7. CC(C)C[C@H](NC(=O)[C@H](CCc1ccccc1)N[C@H](CCCCN1Cc2ccccc2C1=O)C(=O)O)C(=O)Nc1ccccc1

[-0.14, 1.11, -1.14, 0.76, 0.76, 0.83, 0.20]

For each of the items listed, what is its log10(Ki)?
1. CC(C)C[C@H](NC(=O)[C@H](CCc1ccccc1)N[C@H](CCCN1C(=O)c2ccccc2C1=O)C(=O)O)C(=O)Nc1ccccc1
2. CC(C)C[C@H](NC(=O)[C@H](CCc1ccccc1)N[C@H](CCNC(=O)c1ccccc1)C(=O)O)C(=O)Nc1ccccc1
3. CC(C)C[C@H](NC(=O)[C@H](CCc1ccccc1)N[C@H](CCCCNC(=O)Cc1ccccc1)C(=O)O)C(=O)Nc1ccccc1

1. 0.53
2. 0.04
3. 0.86

For each of the items listed, what is its log10(Ki)?
1. CC(=O)N1CCCC1C(=O)NCCCC[C@@H](N[C@@H](CCc1ccccc1)C(=O)N[C@@H](CC(C)C)C(=O)Nc1ccccc1)C(=O)O (some centres undefined)
2. CC(C)C[C@H](NC(=O)[C@H](CCc1ccccc1)N[C@H](CCNC(=O)CCc1ccccc1)C(=O)O)C(=O)Nc1ccccc1
3. CC(C)C[C@H](NC(=O)[C@H](CCc1ccccc1)N[C@H](CCNC(=O)CCCc1ccccc1)C(=O)O)C(=O)Nc1ccccc1

[0.04, 0.52, 0.64]
